- METHOD NOTES: Cycloheximide Counterscreen for Small Molecule Inhibitors of Shiga Toxin; also: read at 38.3 µM for the half of the compounds with a filed dose; 0% is about no effect
- PARTICULARS: cell reporter, cycloheximide protein synthesis inhibition counterscreen
About 37,000 (12%) of roughly 300,000 compounds were called active. Rule as the data show it: active = max response mostly above about 13% (no sharp cut-off); inactive = mostly below about 14%. Only a selection was taken, and actives are over-represented in it overall.
Labels: 1 (yes) for active, 0 (no) for inactive

INSERT INTO assay_data (molecule, discrete_label) VALUES
  ('CCOC(=O)C(=CNNc1ccsc1C(=O)OC)C(=O)OCC', '0 (no)'),
  ('Cc1ccc(C2CC(c3cccc(NS(C)(=O)=O)c3)=NN2S(C)(=O)=O)cc1 (configuration not stated)', '1 (yes)'),
  ('Cc1ccccc1C1CC(c2cccs2)=NN1S(C)(=O)=O (configuration not stated)', '0 (no)'),
  ('CCOc1ccccc1NC(=S)NC(=O)CCc1ccccc1', '0 (no)'),
  ('CCOc1cc2[nH]c(=S)n(Cc3ccc(C(=O)N4CCN(C)CC4)cc3)c(=O)c2cc1OCC', '0 (no)'),
  ('N#Cc1cccc(CSc2ncnc(N)n2)c1', '0 (no)'),
  ('CCCCN1C(=O)/C(=C2/Sc3ccc(Cl)cc3N2CC)SC1=S', '0 (no)'),
  ('CN1C=CC=C/C1=C1\SC(=S)N(Cc2ccccc2)C1=O', '0 (no)'),
  ('CCCCOC(=O)c1ccc(NC(c2ccc(C)cc2)P(=O)(OC)OC)cc1 (configuration not stated)', '0 (no)'),
  ('O=[N+]([O-])c1ccccc1N/N=C1\CCc2ccccc21', '1 (yes)'),
  ('COC(=O)/C=C\C(=O)Nc1cccc([N+](=O)[O-])c1', '1 (yes)'),
  ('O=C(Nc1ccc(Cl)c(Cl)c1)N1CC=C(c2ccccc2)CC1', '0 (no)'),
  ('CS(=O)(=O)Nc1ccc(C2=NN(S(C)(=O)=O)C(c3cccs3)C2)cc1 (configuration not stated)', '1 (yes)'),
  ('O=C(Nc1ccccc1)C1CCN(C(=O)c2ccc(Br)cc2)CC1', '0 (no)'),
  ('Cc1nn(-c2ccccc2)c(-n2cccc2)c1C(=O)O', '0 (no)'),
  ('Cc1nn(-c2ccccc2)c(C)c1C(=O)OCC(=O)NC(=O)NC1CCCCC1', '0 (no)'),
  ('O=C(NCc1ccccc1)C(c1ccco1)N(C(=O)c1csnn1)c1ccccc1F (configuration not stated)', '0 (no)'),
  ('Cc1ccc2c(c1)N(CC(=O)N1CCCC(C)C1)C(=O)CO2 (configuration not stated)', '0 (no)'),
  ('CCOC(=O)N1CCN(C(=O)C(=O)Nc2sc3c(c2C#N)CC(C)(C)OC3)CC1', '0 (no)'),
  ('CS(=O)(=O)Nc1cccc(C2=NN(C(=O)c3cccc(F)c3)C(c3cccs3)C2)c1 (configuration not stated)', '0 (no)'),
  ('Cc1ccc(OC(=O)c2c(C)nn(-c3ccccc3)c2C)cc1', '1 (yes)'),
  ('CC(=O)c1c(C)oc2ccc(NS(=O)(=O)c3ccc(C(=O)O)cc3)cc12', '0 (no)');

###

- METHOD NOTES: Cycloheximide Counterscreen for Small Molecule Inhibitors of Shiga Toxin; also: read at 38.3 µM for the half of the compounds with a filed dose; 0% is about no effect
- PARTICULARS: cell reporter, cycloheximide protein synthesis inhibition counterscreen; active compounds read high
The whole screen tested about 300,000 compounds, of which about 37,000 (12%) were called active. Only a selection was taken, and actives are over-represented in it overall.
Measured max response of individual entries
PARAMETER MEASURED: max response (%)

INSERT INTO measurements (compound, endpoint_value) VALUES
  ('CCSc1nnc(NC(=O)c2ccc(C)cc2)s1', 32.4),
  ('CS(=O)(=O)c1ccc2nc(NC(=O)CN3CCCCCC3)sc2c1', -1.48),
  ('Cc1ccc(NC(=O)Cc2nnc(SCC(=O)Nc3nncs3)n2C)cc1', -3.09),
  ('CC(=O)Nc1ccc(S(=O)(=O)N2CCN(CCCOc3cc(C)ccc3C)CC2)cc1', -1.97),
  ('CS(=O)(=O)c1ccc2nc(NC(=O)c3ccc(Cl)nc3)sc2c1', 39.4),
  ('C=CCSc1nnc(NC(=O)c2ccc(NC(C)=O)cc2)s1', 14.5),
  ('CCC(C)[C@H](NC(=O)N1CCn2c1nc1ccccc12)C(=O)NCc1ccc(OC)cc1 (stereo partly drawn)', 7.87),
  ('COc1cccc(C(=O)Nc2nc3ccc(S(C)(=O)=O)cc3s2)c1', 33.2),
  ('NC(=O)CSc1nnc(NC(=O)c2ccc(Br)o2)s1', 27.9),
  ('O=C(Nc1nc2ccc([N+](=O)[O-])cc2s1)c1ccncc1', 23.5),
  ('Cc1cc(C(=O)N/N=C/c2cc([N+](=O)[O-])cc(C)c2O)n[nH]1', 4.92),
  ('CCCOc1ccc(Cn2ccnc2)cc1[N+](=O)[O-]', 6.93),
  ('Cc1cccc(OCC(=O)NC2CC(C)(C)NC(C)(C)C2)c1', -1.93),
  ('Cc1nn(CC(=O)NCC2CCCO2)c(=O)c2cc3ccccc3n12 (stereo not drawn)', 3.06),
  ('CCCC(=O)Nc1nc2ccc(NC(=O)c3cccnc3)cc2s1', 9.53),
  ('O=C(Nc1nnc(SCc2ccccc2Cl)s1)c1cccc([N+](=O)[O-])c1', -4.31),
  ('S=C(NCCc1ccccc1)N1CCn2cccc2C1c1ccncc1 (stereo not drawn)', 6.15),
  ('Cc1c(Cl)cccc1NC(=S)NCC(O)c1ccccc1 (stereo not drawn)', 7.6),
  ('CNC(=O)c1ccc2nc(NC(C)=O)sc2c1', 38),
  ('COc1ccc(CN2CCN(Cc3cn(C)nc3-c3ccccc3)CC2CCO)c(C)c1C (stereo not drawn)', 7.91),
  ('CS(=O)(=O)c1ccc2nc(NC(=O)c3ccc(N4CCCC4=O)cc3)sc2c1', -2.38),
  ('FC(F)(F)C1CCCN(c2nsc3ccccc23)C1 (stereo not drawn)', -4.78),
  ('O=C(NC(Nc1nc2ccc([N+](=O)[O-])cc2s1)(C(F)(F)F)C(F)(F)F)c1ccccc1', 0.792);
